Task for the reader: assign each of the following compounds its reported Dmax.
- tested-system: CDK2 (Homo sapiens)
- Construct: HEK293 clonal lines with CRISPR KI HiBiT tag on CDK2 proteins; host or cells: HEK293 clonal line, CRISPR knock-in HiBiT-CDK2, stably expressing LgBiT
- assay-details: HiBiT assay (CDK2 degradation)
- Type: cell-based
- reported-conditions: HEK293 clonal line with CRISPR KI HiBiT tag on CDK2, 24 hours, HiBiT Lysis Reagent

The following compounds have reported results that may help.
Quick one: Dmax for CN1CCC(OC(=O)NCc2ccc3c(c2)C(=O)N(C2CCC(=O)NC2=O)C3)C1 (stereo not shown) ? ≤ 10%

Return reported Dmax; argument: CN1CCC(COC(=O)NCc2ccc3c(c2)C(=O)N(C2CCC(=O)NC2=O)C3)C1 (stereo not shown) ≤ 10%

What Dmax value was documented for this compound, O=C1CCC(N2Cc3ccc(CNC(=O)OCC45CC(c6ccccc6)(C4)C5)cc3C2=O)C(=O)N1 (stereo not shown) ? 10 to 50%

Fill in the blank: the reported Dmax of O=C1CCC(N2Cc3ccc(CNC(=O)OCC4CC5(CCCC5)CO4)cc3C2=O)C(=O)N1 (stereo not shown) is ____. 10 to 50%

Quick one: Dmax of O=C1CCC(N2Cc3ccc(CNC(=O)OCC4C(F)(F)C45CC5)cc3C2=O)C(=O)N1 (stereo not shown) ? 50 to 80%

Provide Dmax for all items below, preserving their order.
1. CC1(C)CC(OC(=O)NCc2ccc3c(c2)C(=O)N(C2CCC(=O)NC2=O)C3)C1 (stereo not shown)
2. O=C1CCC(N2Cc3ccc(CNC(=O)OCC4CCCCO4)cc3C2=O)C(=O)N1 (stereo not shown)
3. CC1(COC(=O)NCc2ccc3c(c2)C(=O)N(C2CCC(=O)NC2=O)C3)CCCCO1 (stereo not shown)
4. O=C1CCC(N2Cc3ccc(CNC(=O)OCC4(F)CCC4)cc3C2=O)C(=O)N1 (stereo not shown)
5. O=C1CCC(N2Cc3ccc(CNC(=O)OCC4CCC(F)(F)C4)cc3C2=O)C(=O)N1 (stereo not shown)
6. O=C1CCC(N2Cc3ccc(CNC(=O)OCC4CC(F)(F)C4)cc3C2=O)C(=O)N1 (stereo not shown)
7. CC1(C)CCC(OC(=O)NCc2ccc3c(c2)C(=O)N(C2CCC(=O)NC2=O)C3)CC1 (stereo not shown)
8. CC1(COC(=O)NCc2ccc3c(c2)C(=O)N(C2CCC(=O)NC2=O)C3)COC1 (stereo not shown)

10 to 50%
10 to 50%
10 to 50%
≤ 10%
10 to 50%
10 to 50%
10 to 50%
≤ 10%

Each compound below has a recorded value; state its Dmax.
1. O=C1CCC(N2Cc3ccc(CNC(=O)O[C@@H]4CO[C@@H]4c4ccccc4)cc3C2=O)C(=O)N1 (mixture of isomers)
2. C[C@H]1C[C@@H]1COC(=O)NCc1ccc2c(c1)C(=O)N(C1CCC(=O)NC1=O)C2 (stereo partly shown)
3. O=C1CCC(N2Cc3ccc(CNC(=O)OC4CC4)cc3C2=O)C(=O)N1 (stereo not shown)

["≤ 10%", "≤ 10%", "10 to 50%"]
